Target: UniProt:O75469
Sequence (O75469 whole entry): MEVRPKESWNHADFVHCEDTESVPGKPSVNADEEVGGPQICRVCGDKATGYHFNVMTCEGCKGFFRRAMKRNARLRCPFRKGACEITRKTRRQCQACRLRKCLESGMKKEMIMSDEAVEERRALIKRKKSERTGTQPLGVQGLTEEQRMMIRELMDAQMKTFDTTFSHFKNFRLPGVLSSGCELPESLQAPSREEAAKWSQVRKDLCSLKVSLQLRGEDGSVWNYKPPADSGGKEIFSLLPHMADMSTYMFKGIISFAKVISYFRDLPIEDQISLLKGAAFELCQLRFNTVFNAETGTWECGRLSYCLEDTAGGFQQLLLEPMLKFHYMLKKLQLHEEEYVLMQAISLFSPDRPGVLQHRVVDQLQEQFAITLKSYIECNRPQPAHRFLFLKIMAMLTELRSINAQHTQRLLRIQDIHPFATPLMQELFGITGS
Test: PXR luciferase assay (HepG2-PXR Clone 1, CYP3A4-luciferase reporter)
Settings: in the presence of 5 μM rifampicin; read-out: IC50, antagonist of PXR
property: IC50 (µM)
A number alone suffices; assume µM.

Task: I would be grateful if you could share the reported IC50 for CCOC(=O)Nc1ccc2c(c1)N(C(=O)CN(CC)CC)c1ccccc1CC2 .
Result: 6.6

###

Biological target: GST-hCAR-LBD (Homo sapiens, UniProt Q14994)
Construct: purchased Life Technologies (Carlsbad, Calif.) or Invitrogen (Carlsbad, Calif.)
Sequence (Q14994 109-352 limits assumed): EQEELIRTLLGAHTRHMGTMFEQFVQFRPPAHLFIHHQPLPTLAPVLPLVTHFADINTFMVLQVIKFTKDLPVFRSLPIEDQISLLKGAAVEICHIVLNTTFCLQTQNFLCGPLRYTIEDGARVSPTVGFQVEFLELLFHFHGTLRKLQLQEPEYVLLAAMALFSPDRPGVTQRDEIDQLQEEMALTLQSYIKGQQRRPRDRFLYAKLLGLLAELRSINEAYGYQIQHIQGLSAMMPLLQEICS
Experiment: CoAct binding inverse agonist assay (LanthaScreen TR-FRET, fluorescent PGC-1α coactivator recruitment/repression)
Type: biochemical
Conditions: read-out: IC50 (CAR inverse agonistic activity)
// thresholds for IC50 classes: 1 (below 80 nM), 2 (80 nM to below 3000 nM), 3 (3000 nM or more)

Some solved entries appear below for comparison.
>>> assigned_label("CCN(CC)CC(=O)N1c2ccccc2CCc2ccc(NC(=O)NC(C)(C)C)cc21")
3
>>> assigned_label("CCOC(=O)Nc1ccc2c(c1)N(C(=O)CNC(C)(C)C)c1ccccc1CC2")
3
>>> assigned_label("CCN(CC)CC(=O)N1c2ccccc2CCc2ccc(NC(=O)N(CC)CC)cc21")
3
>>> assigned_label("CCOC(=O)Nc1ccc2c(c1)N(C(=O)CN1C(C)(C)CCCC1(C)C)c1ccccc1CC2")
3

Task: Class (by measured IC50) for CC(C)OC(=O)Nc1ccc2c(c1)N(C(=O)CN1CCCCC1)c1ccccc1CC2
Result: 2

Task: Moving on to CCOC(=O)Nc1ccc2c(c1)N(C(=O)CN1CCN(C)CC1)c1ccccc1CC2
Result: 3

###

Target: GST-hCAR-LBD (Homo sapiens, UniProt Q14994)
Construct: purchased Life Technologies (Carlsbad, Calif.) or Invitrogen (Carlsbad, Calif.)
Assay: CoAct binding inverse agonist assay (LanthaScreen TR-FRET, fluorescent PGC-1α coactivator recruitment/repression)
Type: biochemical
Conditions: read-out: IC50 (CAR inverse agonistic activity)
pIC50: −log10 of the molar value.
Everything with pIC50 lower than 6 is not met; everything else, including exactly 6, is met.

Task: Dear colleague, could you confirm whether CCOC(=O)Nc1ccc2c(c1)N(C(=O)CN1CCCC1)c1ccccc1CC2 [Compound 13] has pIC50 at or above 6?
Result: not met

Task: Moving on to CCOC(=O)Nc1ccc2c(c1)N(C(=O)CNC(C)(C)CC)c1ccccc1CC2 [Compound 21]
Result: not met

Task: Moving on to CCOC(=O)Nc1ccc2c(c1)N(C(=O)Cn1ccnc1)c1ccccc1CC2 [Compound 17]
Result: not met

Task: Moving on to O=C(Nc1ccc2c(c1)N(C(=O)Cn1cccc1)c1ccccc1CC2)OC1CCCCC1 [Compound 44]
Result: met

###

Molecular target: GST-hCAR-LBD (Homo sapiens, UniProt Q14994)
Construct: purchased Life Technologies (Carlsbad, Calif.) or Invitrogen (Carlsbad, Calif.)
Test: CoAct binding inverse agonist assay (LanthaScreen TR-FRET, fluorescent PGC-1α coactivator recruitment/repression)
Type: biochemical
Settings: Table 4; read-out: IC50
// thresholds for IC50 classes: lower: < 30 nM; middle: ≥ 30 nM and < 200 nM; upper: ≥ 200 nM

>>> assigned_label("CCOC(=O)Nc1ccc2c(c1)N(C(=O)CN1CCCC1)c1ccccc1CC2")
"upper"
>>> assigned_label("CC(C)OC(=O)Nc1ccc2c(c1)N(C(=O)n1cccc1)c1ccccc1CC2")
"lower"
>>> assigned_label("O=C(Nc1ccc2c(c1)N(C(=O)COC1CCCC1)c1ccccc1CC2)OC1CCCCC1")
"middle"
>>> assigned_label("CC(C)(C)COC(=O)N1c2ccccc2CCc2ccc(NC(=O)OC3CCCCC3)cc21")
"middle"
>>> assigned_label("O=C(Nc1ccc2c(c1)N(C(=O)N1CCCCC1)c1ccccc1CC2)OC1CCCCC1")
"middle"

Would you kindly look at the next entry?
Task: Class (by measured IC50) for CCNCC(=O)N1c2ccccc2CCc2ccc(NC(=O)OCC)cc21 [Compound 24]
Result: upper

###

Biological target: GST-hCAR-LBD (Homo sapiens, UniProt Q14994)
Construct: purchased Life Technologies (Carlsbad, Calif.) or Invitrogen (Carlsbad, Calif.)
Assay: CoAct binding inverse agonist assay (LanthaScreen TR-FRET, fluorescent PGC-1α coactivator recruitment/repression)
Type: biochemical
Conditions: 70 μM compound; 42 μM clotrimazole = 100%, DMSO = 0%; read-out: % Inhibition (70 μM)
property: inhibition at 70 µM (%)
A number alone suffices; assume %.

Sample records with inhibition at 70 µM:
>>> readout_number("CCNCC(=O)N1c2ccccc2CCc2ccc(N)cc21")
27
>>> readout_number("CCN(CC)CC(=O)N1c2ccccc2CCc2ccc(NC(=O)NC(C)(C)C)cc21")
101
>>> readout_number("CCN(CC)CC(=O)N1c2ccccc2CCc2ccc(Nc3nnc(C)o3)cc21")
93.8
>>> readout_number("CCNC(=O)Nc1ccc2c(c1)N(C(=O)CN(CC)CC)c1ccccc1CC2")
94.9
>>> readout_number("CCOC(=O)Nc1ccc2c(c1)N(C(=O)CN1CCCCC1)c1ccccc1CC2")
119

Would you kindly look at the next entry?
Task: I would be grateful if you could share the reported inhibition at 70 µM for CCOC(=O)Nc1ccc2c(c1)N(C(=O)Cn1ccnc1)c1ccccc1CC2 .
Result: 101

###

Biological target: GST-hCAR-LBD (Homo sapiens, UniProt Q14994)
Construct: purchased Life Technologies (Carlsbad, Calif.) or Invitrogen (Carlsbad, Calif.)
Experiment: CoAct binding inverse agonist assay (LanthaScreen TR-FRET, fluorescent PGC-1α coactivator recruitment/repression)
Format: biochemical
Conditions: relative to chemical 1
property: fold increase of CAR inverse agonistic activity (potency) over lead chemical 1 (CINPA1) (fold)
A number alone suffices; assume fold.

>>> readout_number("CCCN(CCC)CC(=O)N1c2ccccc2CCc2ccc(NC(=O)OCC)cc21")
3
>>> readout_number("CC(C)OC(=O)Nc1ccc2c(c1)N(C(=O)Cn1cccc1)c1ccccc1CC2")
32.8

Task: I would be grateful if you could share the reported fold increase of CAR inverse agonistic activity (potency) over lead chemical 1 (CINPA1) for CCOC(=O)Nc1ccc2c(c1)N(C(=O)COC(C)(C)C)c1ccccc1CC2 .
Result: 9.7

Task: Moving on to CCOC(=O)Nc1ccc2c(c1)N(C(=O)Cn1cccc1)c1ccccc1CC2
Result: 19

###

Molecular target: GST-hCAR-LBD (Homo sapiens, UniProt Q14994)
Construct: purchased Life Technologies (Carlsbad, Calif.) or Invitrogen (Carlsbad, Calif.)
Assay: CoAct binding inverse agonist assay (LanthaScreen TR-FRET, fluorescent PGC-1α coactivator recruitment/repression)
Assay type: biochemical
Details: relative to chemical 1
Recorded fold increase of IC50 (decrease of activity) relative to lead chemical 1 (CINPA1), one value per entry.
A number alone suffices; assume fold.

>>> readout_number("CCOC(=O)Nc1ccc2c(c1)N(C(=O)CNC(C)(C)CC)c1ccccc1CC2 [Compound 21]")
3
>>> readout_number("CCOC(=O)Nc1ccc2c(c1)N(C(=O)CN1CCN(C)CC1)c1ccccc1CC2 [compound 81]")
56

Task: I would be grateful if you could share the reported fold increase of IC50 (decrease of activity) relative to lead chemical 1 (CINPA1) for CCOC(=O)Nc1ccc2c(c1)N(C(=O)CCN(CC)CC)c1ccccc1CC2 [Compound 22] .
Result: 3.5

Task: Moving on to CCOC(=O)Nc1ccc2c(c1)N(C(=O)CNC(C)(C)C)c1ccccc1CC2 [compound 83]
Result: 5

###

Target: GST-hCAR-LBD (Homo sapiens)
Construct: purchased Life Technologies (Carlsbad, Calif.) or Invitrogen (Carlsbad, Calif.)
Assay: CoAct binding inverse agonist assay (LanthaScreen TR-FRET, fluorescent PGC-1α coactivator recruitment/repression)
Assay type: biochemical
Conditions: Table 6, CINPA1 and commercially available analogs; read-out: IC50
property: pIC50
Scale note: pIC50 = -log10(concentration in M).

Task: I would be grateful if you could share the reported pIC50 for CCOC(=O)Nc1ccc2c(c1)N(C(=O)CN(CC)CC)c1ccccc1CC2 .
Result: 6.16

###

Biological target: GST-hCAR-LBD (Homo sapiens, UniProt Q14994)
Construct: purchased Life Technologies (Carlsbad, Calif.) or Invitrogen (Carlsbad, Calif.)
Experiment: CoAct binding inverse agonist assay (LanthaScreen TR-FRET, fluorescent PGC-1α coactivator recruitment/repression)
Type: biochemical
Details: read-out: IC50 (CAR inverse agonistic activity)
Recorded IC50, one value per entry.
A number alone suffices; assume nM.

Sample records with IC50:
>>> readout_number("CCNC(=O)Nc1ccc2c(c1)N(C(=O)CN(CC)CC)c1ccccc1CC2")
14400
>>> readout_number("CCOC(=O)Nc1ccc2c(c1)N(C(=O)CN(CC)CC)c1ccccc1CC2 [Compound 1]")
690
>>> readout_number("CCCN(CCC)CC(=O)N1c2ccccc2CCc2ccc(NC(=O)OC(C)C)cc21")
120
>>> readout_number("CCN(CC)CC(=O)N1c2ccccc2CCc2ccc(NC(=O)C(C)(C)C)cc21")
1030

Would you kindly look at the next entry?
Task: I would be grateful if you could share the reported IC50 for CC(C)OC(=O)Nc1ccc2c(c1)N(C(=O)COC1CCCCC1)c1ccccc1CC2 .
Result: 24
